Assay target: human M1 receptor (hCHRM1) (Homo sapiens, UniProt P11229)
Sequence (P11229 whole entry): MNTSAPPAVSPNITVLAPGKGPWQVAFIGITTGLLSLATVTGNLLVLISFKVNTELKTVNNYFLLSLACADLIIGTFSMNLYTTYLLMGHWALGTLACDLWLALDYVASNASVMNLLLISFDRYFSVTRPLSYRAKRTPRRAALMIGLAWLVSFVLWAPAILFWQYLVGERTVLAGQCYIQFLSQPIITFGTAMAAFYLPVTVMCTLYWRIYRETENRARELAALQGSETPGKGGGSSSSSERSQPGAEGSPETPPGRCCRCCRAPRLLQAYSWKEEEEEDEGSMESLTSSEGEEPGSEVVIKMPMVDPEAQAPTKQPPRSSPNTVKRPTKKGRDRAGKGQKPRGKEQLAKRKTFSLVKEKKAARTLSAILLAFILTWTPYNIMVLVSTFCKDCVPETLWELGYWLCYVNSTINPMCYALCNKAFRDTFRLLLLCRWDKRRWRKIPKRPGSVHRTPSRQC
Assay: Measurement of M1 receptor positive allosteric modulator (M1PAM) activity, calcium fluorescence (FLIPRtetra) with acetylcholine at EC20
Settings: inflection point of concentration-dependent curve; CHO-K1 cells expressing hCHRM1; acetylcholine at EC20 (final 0.6-0.8 nM); read-out: IP value
Decision: EC50 beneath 40 nM gives Fulfilled; EC50 meeting or exceeding 40 nM gives Not fulfilled.

Use these answered entries as a reference point.
Cc1c(Cc2ccc(-c3cnn(C)c3)nc2)cc2c(c1C)CN([C@H]1CCCC[C@@H]1O)C2=O (racemic) | Fulfilled
Cc1c(Cc2ccc(OC(F)F)cc2)cc2c(c1C)CN([C@H]1COCC[C@@H]1O)C2=O | Fulfilled
Cc1c(Cc2ccc(-c3ccn(C)n3)cc2)cc2c(c1F)CN([C@H]1CCC[C@@H]1O)C2=O | Fulfilled

Item Cc1c(Cc2ccc(-n3cccn3)cc2)cc2c(c1C)CN(CC(C)(C)O)C2=O : EC50 beneath 40 nM, strictly? Fulfilled

Just wondering, is EC50 of Cc1cc2c(cc1Cc1ccc(-c3cn(C)nn3)cc1F)C(=O)N(CC1CCCO1)C2 (centres unmarked) below 40 nM? Fulfilled

Would you kindly verify if EC50 of Cc1c(Cc2ccc(-c3ccn(C)n3)cc2F)cc2c(c1C)CN([C@H]1CCC[C@@H]1O)C2=O (racemic) is strictly less than 40 nM? Not fulfilled

Here's an entry: Cc1c(Cc2ccc(-n3cccn3)nc2)cc2c(c1C)CN(C[C@@H]1CCCO1)C2=O . Is its EC50 below 40 nM? Not fulfilled

Entry source: patent US9315458B2
